biological target: UniProt:P35968; assay: KDR kinase inhibition, luciferase-coupled chemiluminescent assay (LCCA)
Sequence (P35968 807-1356): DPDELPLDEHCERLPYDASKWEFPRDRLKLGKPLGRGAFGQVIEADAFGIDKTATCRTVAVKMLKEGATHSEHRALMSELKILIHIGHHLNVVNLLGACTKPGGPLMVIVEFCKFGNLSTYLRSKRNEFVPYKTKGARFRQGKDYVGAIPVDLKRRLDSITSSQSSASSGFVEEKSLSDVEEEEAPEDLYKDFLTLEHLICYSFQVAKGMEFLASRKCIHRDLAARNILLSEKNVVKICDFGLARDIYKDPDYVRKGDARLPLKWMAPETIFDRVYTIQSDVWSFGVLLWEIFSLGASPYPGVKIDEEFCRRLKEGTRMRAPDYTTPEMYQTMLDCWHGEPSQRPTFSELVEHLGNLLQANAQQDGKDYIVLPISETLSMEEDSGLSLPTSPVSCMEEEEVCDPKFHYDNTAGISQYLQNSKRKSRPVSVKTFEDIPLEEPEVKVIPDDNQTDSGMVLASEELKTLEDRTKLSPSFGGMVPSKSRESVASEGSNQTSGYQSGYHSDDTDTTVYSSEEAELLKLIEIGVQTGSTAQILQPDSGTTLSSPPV
recorded metric: IC50

Challenge: Give its IC50 value. Item: COc1cc2c(Nc3ccc(Cl)c(Cl)c3)ncnc2cc1OCC1CN(C(=NC#N)N2CCCCC2)CCO1 (stereo in doubt)
Response given: 50 to 1000 nM

----------
target: EphA2 (Homo sapiens (Human), UniProt P29317); test: EphA2 kinase inhibition, luciferase-coupled chemiluminescent assay (LCCA); conditions: read-out: EphA2 IC50
Sequence (P29317 598-890): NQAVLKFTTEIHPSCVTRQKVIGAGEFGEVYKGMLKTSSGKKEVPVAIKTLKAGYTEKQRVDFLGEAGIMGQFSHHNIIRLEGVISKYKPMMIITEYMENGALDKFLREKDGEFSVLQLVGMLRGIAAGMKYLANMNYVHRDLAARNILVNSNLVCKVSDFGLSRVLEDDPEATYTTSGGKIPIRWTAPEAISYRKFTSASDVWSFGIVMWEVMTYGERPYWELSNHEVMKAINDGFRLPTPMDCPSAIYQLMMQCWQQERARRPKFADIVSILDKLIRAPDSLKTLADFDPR
recorded metric: IC50

Example entries and their recorded answers appear below.
compound	recorded metric	test result
COc1cc2c(Nc3ccc(Cl)c(Cl)c3)ncnc2cc1OCc1nc(CN2CCN(C)CC2)cs1	IC50	50 to 1000 nM
COc1cc2c(Nc3cc(Cl)c(Cl)cc3F)ncnc2cc1O[C@H]1CO[C@H]2[C@@H]1OC[C@@H]2OC	IC50	< 50 nM
COc1cc2c(Nc3ccc(Br)c(Cl)c3)ncnc2cc1O[C@H]1CO[C@@H]2[C@@H](OC)[C@H](OC)O[C@@H]21	IC50	< 50 nM
CCN1CCCC1c1nc(COc2cc3ncnc(Nc4ccc(Cl)c(Cl)c4)c3cc2OC)no1 (stereo not drawn)	IC50	1000 to 20000 nM
COc1cc2c(Nc3ccc(Cl)c(Cl)c3)ncnc2cc1O[C@H]1CO[C@H]2[C@@H]1OC[C@@H]2OC	IC50	50 to 1000 nM
CCN1CCCC(c2nc(COc3cc4ncnc(Nc5ccc(Cl)c(Cl)c5)c4cc3OC)no2)C1 (stereo not drawn)	IC50	50 to 1000 nM

Challenge: May I ask what IC50 has been recorded for `COc1cc2c(Nc3ccc(Cl)c(Cl)c3)ncnc2cc1OCc1csc2ccc(Cl)cc12` ?
Response given: 1000 to 20000 nM

Challenge: Given the entry `COc1cc2c(Nc3cc(F)c(F)cc3F)ncnc2cc1O[C@@H]1CO[C@@H]2[C@H]1OC[C@H]2F` , report its measured IC50.
Response given: < 50 nM

Challenge: Given `COc1cc2c(Nc3ccc(Cl)c(Cl)c3)ncnc2cc1OCc1nc(-c2ccccn2)cs1` , state its recorded IC50.
Response given: 50 to 1000 nM

Challenge: # IC50 lookup, item `COc1cc2c(Nc3ccc(Cl)c(Cl)c3)ncnc2cc1OCc1csc([C@@H]2CCCN2C)n1`
Response given: 1000 to 20000 nM

Challenge: GET /values?readout=IC50&item= COCCN1CCOC(COc2cc3ncnc(Nc4ccc(Cl)c(Cl)c4)c3cc2OC)C1 (stereo not drawn)
Response given: 1000 to 20000 nM

Challenge: Endpoint output: IC50 of `COc1cc2c(Nc3ccc(Cl)c(Cl)c3)ncnc2cc1OCc1cc(Br)cc(Br)c1` . Value?
Response given: 50 to 1000 nM

Challenge: // lookup IC50 for CCN1CCCCC1c1nc(COc2cc3ncnc(Nc4ccc(Cl)c(Cl)c4)c3cc2OC)no1 (stereo not drawn)
Response given: 50 to 1000 nM

Challenge: Any idea what IC50 was measured for `COc1cc2c(Nc3cccc(Cl)c3F)ncnc2cc1O[C@H]1CO[C@H]2[C@@H]1OC[C@@H]2OC` ?
Response given: 50 to 1000 nM

----------
target: EphA2 (Homo sapiens (Human)); assay: EphA2 kinase inhibition, luciferase-coupled chemiluminescent assay (LCCA); settings: read-out: EphA2 IC50
recorded metric: IC50

Would you please look over these solved cases?
COc1cc2c(Nc3cc(Cl)c(Cl)cc3F)ncnc2cc1OC[C@@H]1CO[C@H]2[C@@H]1OC[C@@H]2OC 1 to 20 µM
COc1cc2c(Nc3ccc(Cl)c(Cl)c3)ncnc2cc1OCc1nc(-c2cccnc2)cs1 0.05 to 1 µM
COc1cc2c(Nc3ccc(Cl)c(Cl)c3)ncnc2cc1OC1CCCC1 1 to 20 µM

Challenge: Identify the measured IC50 of `COc1cc2c(Nc3ccc(Cl)c(Cl)c3)ncnc2cc1OCCN1CCCC1` for EphA2 (Homo sapiens (Human)).
Response given: 0.05 to 1 µM
